assayMethodText: soluble on expression in E. coli; label from the status in PepcDB or PDB records
measurementType: soluble on expression in E. coli

Qu. Would you kindly share the measured soluble on expression in E. coli for "MGEHICFRRNERLATVNPYWRGNPMVRGRFFNRQHRFRPGMGSVLKWRLSPNPQRKEKKTVKWDPKVCYLRSLDAVVGDSLIWLGHNSFFLQLAGKRIMFDPVFGNIPFVKRQSEFPANPDIFTEIDYLLISHDHFDHLDKQSITRLLNNNPQMKLFCGLGTGELIKSWFPEMRVIEAGWYQQLEDEGLKITFLPAQHWSKRSVRDGGQRLWGAFMLQGNGVSLYYSGDTGYSTHFREIPDLFGAPDYALLGIGAYKPRWFMRPNHISPYESLTASEEMHAGITIPMHYGTFDLSDEPLHDPPKVFAAEAKKRKIRVEIPYLGEIVKLSKRK" ?
Ans. not soluble

Qu. Entry "TDIAGLTIEHVTGDYLNGFRIIPDNIKYKGVIVTFGGSDGTPAYEQAVQLAQEGYQVLALFFFGMPNQHPTLAEVPVEYYQEIESYISQHFSQPDKITVIGTSKGAEYALLLASLYDSIDNVVLYAPSSHIYAGLDFRNYSSSWSQNGKALPYLDVRSENSLKLFYNFLIKTPISYYHTYKQALDKDKNSEDKRIKVEKTKANILIFAGENDRMWPSAESARLIEKYQPNHTQVTIYKEAGHLFAGDGI" : reported soluble on expression in E. coli = ?
Ans. not soluble

----------
assayMethodText: soluble on expression in E. coli; label from the status in PepcDB or PDB records
measurementType: soluble on expression in E. coli

Worked set:
Qu. // soluble on expression in E. coli lookup, key: "MSLLQRDLVNTTGFLRMIMEHNYEKFASVYDAVMDDSLYDLWTDFSLRHLPKSKGRNRLLELACGTGIQSVRFAQAGFDVTGLDLSQDMLAIAKKRAQSAKKKIDFIQGNMLDLSQVGQFDFVTCYSDSICYMQDEVDVGDVFKEVYDVLANDGIFIFDVHSTYQTDECFPGYSYHENADDFAMVWDTYADEAPHSVVHELTFFIQEDDGRFSRFDEVHEERTYELLTYDILLEQAGFKSFKVYADFEDKEPTKTSKRWFFVAYKEGHHHHHH"
Ans. soluble

Qu. # get_value(readout='soluble on expression in E. coli', item= "MNPFQKIKSAVNKRQRFFINRTLQRKLTNQGMTVISANCVGAFILHDLHQPFNSPFVNLYLSPQDFLRYLQNIDFYLTQPLTFVQTEKSYPVGKLADLEIHFMHYHSEQEANEKWQLRTSRMKLDNLFIMMTDRDGVTEKDIQLFDQLPFKNKVIFTHKPYPAFKSAYYIKGFEKQNQVGDIFEFSGWNGKKYYDQFDYVKWFNHA" )
Ans. not soluble

Qu. Quick one: soluble on expression in E. coli of "GSPHMDEISETNTIFKLEGVSVLSPLRKKLDLVFYLSNVDGSPVITLLKGNDRELSIYQLNKNIKMASFLPVPEKPNLIYLFMTYTSCEDNKFSEPVVMTLNKENTLNQFKNLGLLDSNVTDFEKCVEYIRKQAILTGFKISNPFVNSTLVDTDAEKINSFHLQCHRGTKEGTLYFLPDHIIFGFKKPILLFDASDIESITYSSITRLTFNASLVTKDGEKYEFSMTDQTEYAKIDDYVKRKQMKDKSMSEELKAKSKSKG" ?
Ans. soluble

Qu. Query (sequence): "MGSDKIHHHHHHMKTSKKWIAHFEANALHQRINWDLFPAITEAETASVLSSLQAWQLGETSDGAHLIHASTLYASHIGDLDYIDAVKLFIKEEQKHGNNLGRYLDVIDKPRIKKDWGDSLFRKIRYFNTNMEIWTLAVITVESAAQVFYQCLKNATECTLLRQICTDILIDEAYHIDFQTERMTILFNKKSVLSRCLSRIMYPVFFFSTSLLVWSAHKKLFKAGGIDFKKYMNKMKYKYFKTLHRIALVCSRKSTLIHSALH" ; field requested: soluble on expression in E. coli
Ans. not soluble

The record that follows has no soluble on expression in E. coli shown yet.
Qu. Given the entry "TEPTIHKGLAGVTADVTAISKVNSDTNSLLYRGYPVQELAAKCSFEQVAYLLWNSELPNDSELKAFVNFERSHRKLDENVKGAIDLLSTACHPMDVARTAVSVLGANHARAQDSSPEANLEKAMSLLATFPSVVAYDQRRRRGEELIEPREDLDYSANFLWMTFGEEAAPEVVEAFNVSMILYAEHSFNASTFTARVITSTLADLHSAVTGAIGALKGPLHGGANEAVMHTFEEIGIRKDESLDEAATRSKAWMVDALAQKKKVMGFGHRVYKNGDSRVPTMKSALDAMIKHYDRPEMLGLYNGLEAAMEEAKQIKPNLDYPAGPTYNLMGFDTEMFTPLFIAARITGWTAHIMEQVADNALIRPLSEYNGPEQRQVP" , report its measured soluble on expression in E. coli.
Ans. soluble

----------
assayMethodText: soluble on expression in E. coli; label from the status in PepcDB or PDB records
measurementType: soluble on expression in E. coli

Observe how each entry below is paired with its result.
Qu. Which measured soluble on expression in E. coli value corresponds to "MRKAAALSLLVLVILSTTLAGCNFGKGSNEEDSKGTNLKLPCSIVSTISGEDVLYYEIEGDSLKKLDLDLKGHMEVYSEELGLAVYREFADKGTNLIITNGVKEHKISVEGNIEELIISPKGTKLLYRYNSGDKIGYKVLDLQNFKEFDFNENLAISGENVKFVNEDQLILYGVDLEKRQSGLYIYNIKDGSYTLEKQIVKAFIDYIDLVEDQVVLYTQSSIDGKKNCYIYNLDSKKESVISNEVGEIESLCKIGNVVYFIGTKGEGLRSLYSIDITNNKLDRLVYDFPKNISEKSKLIVVGDNIYFLGFNDSKEKNALYRYNLKDKSIKLIDSNKGQYIIIKMAGDPLEHHHHHH" ?
Ans. not soluble

Qu. Entry under review: "MGSDKIHHHHHHMKHYALLISFLALSACSQGSEDLNEWMAQTRREAKAEIIPFQAPTLPVAPVYSPPQLTGPNAFDFRRMETDKKGENAPDTKRIKETLEKFSLENMRYVGILKSGQKVSGFIEAEGYVYTVGVGNYLGQNYGRIESITDDSIVLNELIEDSTGNWVSRKAELLLNSSDKNTEQAAAPAAEQN" . Reported soluble on expression in E. coli?
Ans. not soluble

Qu. Item under review: "MTYAVEFDNVSRLYGDVRAVDGVSIAIKDGEFFSMLGPSGSGKTTCLRLIAGFEQLSGGAISIFGKPASNLPPWERDVNTVFQDYALFPHMSILDNVAYGLMVKGVNKKQRHAMAQEALEKVALGFVHQRKPSQLSGGQRQRVAIARALVNEPRVLLLDEPLGALDLKLREQMQLELKKLQQSLGITFIFVTHDQGEALSMSDRVAVFNNGRIEQVDSPRDLYMRPRTPFVAGFVGTSNVFDGLMAEKLCGMTGSFALRPEHIRLNTPGELQANGTIQAVQYQGAATRFELKLNGGEKLLVSQANMTGEELPATLTPGQQVMVSWSRDVMVPLVEER" . Reported soluble on expression in E. coli?
Ans. not soluble

Qu. Any idea what its soluble on expression in E. coli is? The sequence is "TLNIVITGAKGFVGKNLKADLTSTTDHHIFEVHRQTKEEELESALLKADFVVHLAGVNRPEHDKEFSLGNVSYLDHVLDILTRNTKKPAILLSSSIQATQDNPYGESKLQGEQLLREYAEEYGNTVYIYRWPNLFGKWCKPNYNSVIATFCYKIARNEEIQVNDRNVELTLNYVDDIVAEIKRAIEGTPTIENGVPTVPNVFKVTLGEIVDLLYKFKQSRLDRTLPKLDNLFEKDLYSTYLSYLPSTDFSYPLLMNVDDRGSFTEFIKTPDRGQVSVNISKPGITKGNHWHHTKNEKFLVVSGKGVIRFRHVNDDEIIEYYVSGDKLEVVDIPVGYTHNIENLGDTDMVTIMWVNEMFDPNQPDTYFLEV"
Ans. soluble

Qu. Given the entry "GGRALRVLVDMDGVLADFEGGFLRKFRARFPDQPFIALEDRRGFWVSEQYGRLRPGLSEKAISIWESKNFFFELEPLPGAVEAVKEMASLQNTDVFICTSPIKMFKYCPYEKYAWVEKYFGPDFLEQIVLTRDKTVVSADLLIDDRPDITGAEPTPSWEHVLFTACHNQHLQLQPPRRRLHSWADDWKAILDSKRPC" , report its measured soluble on expression in E. coli.
Ans. soluble

Here is the next item to consider.
Qu. Can you share its soluble on expression in E. coli? I mean this sequence: "MGSDKIHHHHHHMNRVISVGFEHPKSYLDSNQSVEAKSRIDSYIDKKMDEWNKEVVYAKHLYEPSVNKEYYKRHMIEHVWRIRMSRTVQAKALHQIAKISPEAAQLYARYQDEEMLHDILFKQDALALGVTEDTIKNTEPMFATRLLMGFKYFVAEHENPLGAVAYSYLVEYVTAKITPDQVSNLKSELGSENIKGQVAHINTDLSHDHSGDMWEIVRALLFTESDIEMFIKYIDEIQDLLAMYFKELYEKTIAKNESQAA"
Ans. not soluble

Reference source: the DeepSol protein solubility set
